# Tested on: NCI-H460 lung
# Method Summary: NCI-60 one-dose screen, 48 h
# Measurement Conditions: 10 µM unless noted
Compounds without any hit were thinned out: in the full panel of roughly 83,000, 20% have a hit. Calls of active or inactive are those of the source. How the source made its calls: active means growth percent below 10; inactive means the rest.
Outcome codes: active, inactive

Compound: O=C1N/C(=N\c2nccs2)S/C1=C\c1ccc([N+](=O)[O-])cc1
Experimental System: NCI-H460 lung
Class Label: active

Compound: Cc1cc(Cl)ccc1NC(=O)Nc1ccc(-c2ccc3c(c2)NC(=O)/C3=C\c2ccc[nH]2)cc1
Experimental System: NCI-H460 lung
Class Label: inactive

Compound: CC(=O)Nc1ccc(S(=O)(=O)Nc2ccc(-c3ccc4c(c3)NC(=O)/C4=C\c3ccc[nH]3)cc2)cc1
Experimental System: NCI-H460 lung
Class Label: inactive

Compound: Cc1cccc(-c2ccccc2Oc2ccc3nnc(Cl)n3n2)c1
Experimental System: NCI-H460 lung
Class Label: inactive

Compound: Cc1ccc(-c2cc(-c3ccccc3)[nH]c(=O)c2C#N)cc1
Experimental System: NCI-H460 lung
Class Label: inactive

Compound: O=S(=O)(c1nc(-c2ccc(Br)cc2)oc1-c1ccc(Cl)cc1)N1CCCC(O)C1 (centres undefined)
Experimental System: NCI-H460 lung
Class Label: inactive

Compound: Cc1nn(-c2ccccc2)c2nc(C)n(C(=O)N/N=C/c3cccc([N+](=O)[O-])c3)c(=O)c12
Experimental System: NCI-H460 lung
Class Label: inactive

Compound: CC[C@]12C=CCN3CC[C@]4(C(=C(C(=O)OC)C1)Nc1cc(OC)c([C@@H]5[C@H]6O[C@H]6[C@@]6(CC)CC(C(=O)OC)=C7Nc8cc(O)ccc8[C@@]78CCN5[C@@H]68)cc14)[C@@H]32
Experimental System: NCI-H460 lung
Class Label: active

Compound: O=C(N/N=C/c1c[nH]c2ccccc12)Nc1ccccc1Cl
Experimental System: NCI-H460 lung
Class Label: active

* * *

# Test system: SF-295 CNS
# Method Summary: NCI-60 one-dose screen, 48 h
# Measurement Conditions: 10 µM unless noted
Compounds without any hit were thinned out: in the full panel of roughly 83,000, 20% have a hit. Activity calls are given as the source filed them. How the source made its calls: active means growth percent below 10; inactive means the rest.
Labels: active, inactive

Smiles String: O=Cc1cncc(-c2ccc3ncnc(N4CCc5cc(F)c(Cl)cc54)c3c2)c1
Experimental System: SF-295 CNS
Class Label: inactive
--
Smiles String: CN1CCN(C(=O)Oc2cc3c(c4ccccc24)[C@H](CCl)CN3C(=O)c2cc3cc(OCCCN4CCC4)ccc3[nH]2)[C@H]2CSSC[C@H]21
Experimental System: SF-295 CNS
Class Label: active
--
Smiles String: C#CCN(C)CCCOc1ccc(N(C)C(=O)c2cc(C(C)C)c(O)cc2O)cc1Cl
Experimental System: SF-295 CNS
Class Label: active
--
Smiles String: NS(=O)(=O)c1ccc(Nc2nc(N/N=C/c3cc(Br)c(O)c(Br)c3)nc(Nc3ccccc3)n2)cc1
Experimental System: SF-295 CNS
Class Label: inactive

* * *

# System: CCRF-CEM leukemia
# Method Summary: NCI-60 one-dose screen, 48 h
# Measurement Conditions: 10 µM
The panel holds about 83,000 compounds, 20% with a hit somewhere; the sample as a whole holds those more often. Calls of active or inactive are those of the source. The calls were made as follows: active = growth percent below 10; inactive = the rest.
Possible outcomes: YES (active), NO (inactive)

Smiles String: CC/C(=C(/c1ccc(O)cc1)c1ccc(OCCN(C)C(=O)COCCOCCNC(=O)c2ccc3c(c2)CN([C@@H]2CCC(=O)NC2=O)C3=O)cc1)c1ccccc1
Class Label: NO

Smiles String: CC/C(=C(/c1ccc(O)cc1)c1ccc(OCCN(C)C(=O)CCOCCNC(=O)Cc2ccc3c(c2)CN([C@@H]2CCC(=O)NC2=O)C3=O)cc1)c1ccccc1
Class Label: NO

Smiles String: CC/C(=C(/c1ccc(O)cc1)c1ccc(OCCN(C)C(=O)COCCOCCNC(=O)Cc2ccc3c(c2)CN([C@@H]2CCC(=O)NC2=O)C3=O)cc1)c1ccccc1
Class Label: NO

Smiles String: CC/C(=C(\c1ccc(O)cc1)c1ccc(OCCN(C)C(=O)COCCNC(=O)Cc2ccc3c(c2)CN([C@@H]2CCC(=O)NC2=O)C3=O)cc1)c1ccccc1
Class Label: YES

Smiles String: CC/C(=C(\c1ccc(O)cc1)c1ccc(OCCNC)cc1)c1ccccc1
Class Label: NO

* * *

# System: RPMI-8226 leukemia
# Method Summary: NCI-60 one-dose screen, 48 h (100 = growth as untreated, 0 = no growth, -100 = all killed)
# Measurement Conditions: 10 µM unless noted
# Description: Growth inhibition of the RPMI-8226 human tumor cell line is measured as a screen for anti-cancer activity. Cells are grown in 96 well plates and exposed to the test compound for 48 hours. Compounds are tested at a single concentration, which is 10^-5 M for most compounds. The reported endpoint is percent growth (GI% or GIPRCNT), where numbers from 0 - 100% represent growth inhibition, and numbers from -100% - 0 represent cell death. For example, a value of 40 represents 60% growth inhibition. […]
This is part of a sample that, as a whole, favours compounds with a hit. Of some 83,000 tested, about 20% had one in any assay.

Molecule: O=C(CSc1nc2sc3c(c2c(=O)n1-c1ccc(Cl)cc1)CCCC3)NNC(=O)c1ccc(F)cc1
Experimental System: RPMI-8226 leukemia
growth, %: 83.2
//
Molecule: O=C(CSc1nnc(-c2ccc(-c3nc4ccccc4[nH]3)cc2)o1)Nc1ccc(Br)cc1
Experimental System: RPMI-8226 leukemia
growth, %: 7.82
//
Molecule: COc1c(B(O)O)cccc1-c1nc2ccc3cn[nH]c3c2c2c1CCCC2
Experimental System: RPMI-8226 leukemia
growth, %: 45.8
//
Molecule: O=C1NC(=NC23CC4CC(CC(C4)C2)C3)N/C1=C\c1ccc2ncccc2c1
Experimental System: RPMI-8226 leukemia
growth, %: -31.1
//
Molecule: COc1ccccc1NC(=O)c1ccc(NC(=O)CCl)s1
Experimental System: RPMI-8226 leukemia
growth, %: -37.4
//
Molecule: CCOc1ccccc1NC(=O)N/C(N)=N/c1nc2ccccc2s1
Experimental System: RPMI-8226 leukemia
growth, %: 0.173
//
Molecule: COc1ccc(-c2cc(C(=O)N=Nc3c(O)[nH]c4ccc(Cl)cc34)c3ccccc3n2)cc1
Experimental System: RPMI-8226 leukemia
growth, %: 102
//
Molecule: FC(F)(F)c1cc2c(Cl)ncnc2n1CCN1CCOCC1
Experimental System: RPMI-8226 leukemia
growth, %: 103
//
Molecule: COC(=O)c1cc(C(=O)CBr)n2c1ccc1c3ccccc3ccc12
Experimental System: RPMI-8226 leukemia
growth, %: 38.7
//
Molecule: N#Cc1ccc(C(=O)NNC(=O)CSc2nc3sc4c(c3c(=O)n2-c2ccc(Cl)cc2)CCCC4)cc1
Experimental System: RPMI-8226 leukemia
growth, %: 54.6
//
Molecule: O=C(c1ccc(O)cc1)C1[C@H](c2ccccc2Br)[C@@H](c2ccccc2)NC12C(=O)Nc1ccccc12 (stereo not given in full)
Experimental System: RPMI-8226 leukemia
growth, %: 31.4
//
Molecule: COc1ccc2[nH]c(O)c(N=NC(=O)c3ccc4nc(-c5ccc(Cl)cc5)[nH]c4c3)c2c1
Experimental System: RPMI-8226 leukemia
growth, %: 103
//
Molecule: CN1CCc2c(sc3ncnc(N/N=C/c4cccc(Cl)c4Cl)c23)C1
Experimental System: RPMI-8226 leukemia
growth, %: -16
//
Molecule: O=C(Cn1c(/C=C/c2ccc([N+](=O)[O-])cc2)nc2ccccc2c1=O)Nc1ccccc1
Experimental System: RPMI-8226 leukemia
growth, %: 93.8
//
Molecule: COc1ccc2c(c1)N=c1c-2cc2c(O)[nH]c(=S)n2c1=O
Experimental System: RPMI-8226 leukemia
growth, %: 62.6
//
Molecule: O=C1/C(=C/c2cnc(-c3ccccc3)s2)SC(=S)N1Cc1ccc2c(c1)OCO2
Experimental System: RPMI-8226 leukemia
growth, %: 110
//
Molecule: Cc1ccc(C2CC(c3ccc(NC(=O)Nc4ccccc4)cc3)=NN2c2ccc(S(N)(=O)=O)cc2)cc1 (stereo not given)
Experimental System: RPMI-8226 leukemia
growth, %: -11.5
//
Molecule: Cc1ccc2nc(COc3ccc(C(=O)NNC(=O)Nc4ccc(Cl)c(C(F)(F)F)c4)cc3)[nH]c2c1
Experimental System: RPMI-8226 leukemia
growth, %: 59.5
//
Molecule: Clc1ccccc1Nc1nnc(-c2c[nH]c3ccccc23)o1
Experimental System: RPMI-8226 leukemia
growth, %: 4.23
//
Molecule: COc1ccc(NC(=O)N/N=C/c2c[nH]c3ccccc23)cc1
Experimental System: RPMI-8226 leukemia
growth, %: 24.9

* * *

# System: RPMI-8226 leukemia
# Method Summary: NCI-60 one-dose screen, 48 h (100 = growth as untreated, 0 = no growth, -100 = all killed)
# Measurement Conditions: 10 µM unless noted
# Description: Growth inhibition of the RPMI-8226 human tumor cell line is measured as a screen for anti-cancer activity. Cells are grown in 96 well plates and exposed to the test compound for 48 hours. Compounds are tested at a single concentration, which is 10^-5 M for most compounds. The reported endpoint is percent growth (GI% or GIPRCNT), where numbers from 0 - 100% represent growth inhibition, and numbers from -100% - 0 represent cell death. For example, a value of 40 represents 60% growth inhibition. […]
Compounds without any hit were thinned out: in the full panel of roughly 83,000, 20% have a hit.
Simple rule here: growth less than 20% is Yes, otherwise No.

Compound: COc1cc(NC(=O)CSc2nnc(-c3ccc(-c4nc5ccc(Cl)cc5[nH]4)cc3)o2)cc(OC)c1OC
Class Label: No
//
Compound: Cn1cc(-c2cc3nc(-c4cn(C)c5ncccc45)cc(N)n3n2)c2cc(F)ccc21
Class Label: No
//
Compound: Nc1nn2c(-c3cc4cc(Br)ccc4oc3=O)ccnc2c1N=Nc1ccc(S(N)(=O)=O)cc1
Class Label: No
//
Compound: NCCCCn1c(SCCc2c[nH]c3ccccc23)nnc1-c1ccc2ccccc2n1
Class Label: Yes
//
Compound: C/C(=N/O)c1ccc(NC(=O)CSc2nnc(-c3ccc(-c4nc5ccc(Cl)cc5[nH]4)cc3)o2)cc1
Class Label: Yes
//
Compound: COc1ccc(N=Nc2c(N)nn3c(N)c(C#N)c(-c4ccc(C)cc4)nc23)cc1
Class Label: Yes
//
Compound: O=C1Nc2cc(-c3ccc(NS(=O)(=O)c4ccc([N+](=O)[O-])cc4)cc3)ccc2/C1=C/c1ccc[nH]1
Class Label: Yes
//
Compound: CCOC(=O)/C(F)=C/C1CC1CCc1ccc(OCC)cc1 (centres undefined)
Class Label: No
//
Compound: C#CCN(C)CCCOc1ccc(N(C)C(=O)c2cc(C(C)C)c(O)cc2O)cc1Cl
Class Label: Yes
